Recorded pKd, one value per entry.
Target: T1, IGF-IIE (amino acids 1-104 of pro-IGF-II) (human, UniProt P01344 25-128)
T1 construct: Biotinylated in the selections; also called IGF-IIE (104aa)
T1 sequence (P01344 25-128): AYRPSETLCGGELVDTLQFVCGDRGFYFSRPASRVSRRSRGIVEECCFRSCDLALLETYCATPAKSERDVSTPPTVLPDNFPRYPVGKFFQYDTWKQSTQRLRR
Assay: SPR (Flexchip), Fab, 1st of duplicate
Please treat pKd as minus the base-10 logarithm of the molar concentration.

Record excerpt, results attached:
M0064-F02 Fab (Fab, V domains shown, soluble Fab (sFab); also the Fab crystallised with IGF-II; also called R0032-A11; 566A-M0064-F02) VH: EVQLLESGGGLVQPGGSLRLSCAASGFTFSNYIMWWVRQAPGKGLEWVSVISSSGGMTRYADSVKGRFTISRDNSKNTLYLQMNSLRAEDTAVYYCARDNGDYVGEKGFDIWGQGTMVTVSS VL: DIQMTQSPSSLSASVGDRVTITCRASQSISNYLNWYQQKPGKAPKLLIYTASTLQSGVPSRFSGSASGTDFTLTINSLQPEDFATYSCQQSYNSPWTFGQGTKVEIKR = 9.49
M0068-E03 Fab (Fab, V domains shown, soluble Fab (sFab); heavy constant part carries His6 and myc tags; also called R0032-C01) VH: EVQLLESGGGLVQPGGSLRLSCAASGFTFSEYVMAWVRQAPGKGLEWVSSIVSSGGYTKYADSVKGRFTISRDNSKNTLYLQMNSLRAEDTAVYYCAKDMTYSGDAFDVWGQGTMVTVSS VL: DIQMTQSPSSLSASVGDRVTITCRASQSINTYLNWYQQKPGKAPKVLIHAASTLESGVPSRFSGSGSATEFTLTISSLQPEDFATFYCQQSYSVPFTFGPGTRLSSKR = 9.18

Problem: Consider the binder M0033-E05 Fab (Fab, V domains shown, soluble Fab (sFab); also called R0032-A05) VH: EVQLLESGGGLVQPGGSLRLSCAASGFTFSHYSMWWVRQAPGKGLEWVSYIGPSGGHTRYADSVKGRFTISRDNSKNTLYLQMNSLRAEDTAVYYCARGLYYYDSSSVTHAFDLWGQGTMVTVSS VL: DIQMTQSPSSLSASVGDRVTISCRASQGITNYLVWFQQKPGKAPRLLIYDASTLESGVPSRFSGSGSGTDFTLTISSLQPEDFATYYCQQADGFPLTFGEGTKVEMKR . State its measured pKd.
Result: 9.06

Problem: Consider the binder M0072-G06 Fab (Fab, V domains shown, soluble Fab (sFab); also called R0032-C05) VH: EVQLLESGGGLVQPGGSLRLSCAASGFTFSEYVMWWVRQAPGKGLEWVSVISPSGGYTVYADSVKGRFTISRDNSKNTLYLQMNSLRAEDTAVYYCARDRGGATTLDYWGQGTLVTVSS VL: DIQMTQSPSTLSASVGDRVTITCRASQTISSWLAWYQQKPGKAPKLMIYKAASLGSEVPSRFSGSGSGTEFTLTISSLQPEDFSTYYCQQYKTYPVTFGQGTRLEIKR . State its measured pKd.
Result: 9.25

Problem: Consider the binder M0064-E04 Fab (Fab, V domains shown, soluble Fab (sFab); also called R0032-A03; 566A-M0064-E04) VH: EVQLLESGGGLVQPGGSLRLSCAASGFTFSVYDMNWVRQAPGKGLEWVSSISSSGGGTLYADSVKGRFTISRDNSKNTLYLQMNSLRAEDTAVYYCARDSDTSSYYWYYDLWGRGTLVTVSS VL: DIQMTQSPSSLSASVGDRVTITCQASHDISNYLNWYQQKPGKAPKLLIYAASRLQSGVPSRFSGGGSGTDFSLTISSLQAEDFATYYCQQSYSFPRTFGQGTNLEIKR . State its measured pKd.
Result: 10.03
